Provenance of the data: the CheMixHub viscosity set

experiment: xn = mol fraction of the nth substance listed; conditions: 303.15 K; 101.33 kPa; x2 = 0.3
viscosity overview
All answers are understood in mPa·s, so give the number only.

[[record]]
molecule = "CC[N+](=O)[O-] + CO"
outcome_measure = "viscosity"
unit_spec = "mPa·s"
readout_value = 0.517

[[record]]
molecule = "CC[N+](=O)[O-] + CC(C)O"
outcome_measure = "viscosity"
unit_spec = "mPa·s"
readout_value = 0.613

[[record]]
molecule = "CC[N+](=O)[O-] + CCCO"
outcome_measure = "viscosity"
unit_spec = "mPa·s"
readout_value = 0.647


Next:
Quick check: viscosity of CC[N+](=O)[O-] + CCO ?
0.571

* * *

experiment: xn = mol fraction of the nth substance listed; conditions: 293.15 K; 101.33 kPa; x2 = 0.35
± gives the uncertainty stated by the source.
viscosity overview
I'd appreciate it if you included the unit after the number.

[[record]]
molecule = "CC[N+](=O)[O-] + CCCO"
readout_value = "0.776 ± 0.007 mPa·s"

[[record]]
molecule = "CC[N+](=O)[O-] + CC(C)O"
readout_value = "0.729 ± 0.015 mPa·s"

[[record]]
molecule = "CC[N+](=O)[O-] + CCO"
readout_value = "0.658 ± 0.006 mPa·s"


Next:
Quick check: viscosity of CC[N+](=O)[O-] + CCC(C)O ?
0.793 ± 0.007 mPa·s

* * *

experiment: xn = mol fraction of the nth substance listed; details: 293.15 K; 101.33 kPa; x2 = 0.8
OUTCOME_MEASURE: viscosity (mPa·s)
All answers are understood in mPa·s, so give the number only.

Example entries begin here.
[[record]]
compound = "CC[N+](=O)[O-] + CO"
unit_spec = "mPa·s"
readout_value = 0.558

[[record]]
compound = "CC[N+](=O)[O-] + CC(C)O"
unit_spec = "mPa·s"
readout_value = 1.276

[[record]]
compound = "CC[N+](=O)[O-] + CCCO"
unit_spec = "mPa·s"
readout_value = 1.391

[[record]]
compound = "CC[N+](=O)[O-] + CCC(C)O"
unit_spec = "mPa·s"
readout_value = 1.723


Quick check: viscosity of CC[N+](=O)[O-] + CCO ?
0.886

* * *

viscosity overview
test: xn = mol fraction of the nth substance listed; conditions: 303.15 K; 101.33 kPa; x2 = 0.55
All answers are understood in mPa·s, so give the number only.

[[record]]
compound = "CC[N+](=O)[O-] + CCCO"
unit_spec = "mPa·s"
readout_value = 0.8

[[record]]
compound = "CC[N+](=O)[O-] + CO"
unit_spec = "mPa·s"
readout_value = 0.489

[[record]]
compound = "CC[N+](=O)[O-] + CCC(C)O"
unit_spec = "mPa·s"
readout_value = 0.847

[[record]]
compound = "CC[N+](=O)[O-] + CCO"
unit_spec = "mPa·s"
readout_value = 0.618


Next:
Quick check: viscosity of CC[N+](=O)[O-] + CC(C)(C)O ?
0.886

* * *

assay: xn = mol fraction of the nth substance listed; conditions: 293.15 K; 101.33 kPa; x2 = 0.7
viscosity overview
All answers are understood in mPa·s, so give the number only.

[[record]]
compound = "CC[N+](=O)[O-] + CCC(C)O"
readout_value = 1.378


Quick check: viscosity of CC[N+](=O)[O-] + CC(C)O ?
1.08

Quick check: viscosity of CC[N+](=O)[O-] + CCCO ?
1.17

Quick check: viscosity of CC[N+](=O)[O-] + CCO ?
0.804
